- Tested on: Saccharomyces cerevisiae
- assayProcedure: transcriptional activation domain activity (GFP:mCherry ratio, weighted mean of sorted bins, harmonized to initial dataset scale) (arbitrary fluorescence ratio units); higher = stronger transcriptional activation
- statedConditions: beta-estradiol 1 µM; induction time 4 h
Below: a set of entries, each annotated with reported transcriptional activation domain activity.
propertyMeasured: transcriptional activation domain activity

sequenceEntry: LLVRLRKEYYLALFIFWRVGYNVLLGLMLRSQSDWNLLVRFAKRYGFGQNAGK
measurementTarget: Saccharomyces cerevisiae
reportedResult: 48800

sequenceEntry: KGKSKERKTESASTSGSEAKESEAAPKEEKEDAKKEDDKKEKAEEKTEEKAEE
measurementTarget: Saccharomyces cerevisiae
reportedResult: 51500

sequenceEntry: KRRRWQLALLLLFWFAWLATFITVIHNSRFVSKVNGQDPYLLSCTSVLWSKNN
measurementTarget: Saccharomyces cerevisiae
reportedResult: 47100

sequenceEntry: ETVLKDLKSNQNIDTTVQKLFANCLFYARRIALIHPNLTSIKALLLLMVALEC
measurementTarget: Saccharomyces cerevisiae
reportedResult: 81600

sequenceEntry: IKDIEINDLRNRYTLTKGAVQKKGPRLVRPLRISSSPECTEPRPSPCLSVSLS
measurementTarget: Saccharomyces cerevisiae
reportedResult: 45600

sequenceEntry: PFRIGRIVAWISYGIHQVGQWGILAKVQRAKEEWSNTYRWWNWSMVYLNGFML
measurementTarget: Saccharomyces cerevisiae
reportedResult: 59700

sequenceEntry: MALIAFFLLFYLINLLYSLKLFLQYFFFTFTIPYLYIAYAFFFILYSLFLVFS
measurementTarget: Saccharomyces cerevisiae
reportedResult: 42900

sequenceEntry: MTEQAPTIRTAEKDTEGPAKRRRRPALSCVECRSRKVRCDRGKPCRACTRVRS
measurementTarget: Saccharomyces cerevisiae
reportedResult: 26200

sequenceEntry: PRLFPIASHLFFSLPHAKCCYPYLLLLLFPLLPLPFSLLVFCNLIFFFFFLFF
measurementTarget: Saccharomyces cerevisiae
reportedResult: 41300

sequenceEntry: KDNATTAAVAAASSEKDDEKKAKEENKPDDKKTEEKKAEEKKSDDTAKDDASK
measurementTarget: Saccharomyces cerevisiae
reportedResult: 34300

sequenceEntry: MRQARGLHCRCPFGYRASLVLCLYLDVLFEGGFLYFYFFVPFFHATTFFFFLL
measurementTarget: Saccharomyces cerevisiae
reportedResult: 37700

sequenceEntry: LLYLCRDILMAVFAWSLAIQIDPFFTNVVIRSILSPTIAKTFRWMSWCVYWWF
measurementTarget: Saccharomyces cerevisiae
reportedResult: 57700

sequenceEntry: KPHHKWIVPTPFASHAFHPVDGYFQSLPYHIFIFVFPMQRHLYLALFVAVNCW
measurementTarget: Saccharomyces cerevisiae
reportedResult: 41800

sequenceEntry: MAMVRCMDLYNLDGNGMGKFYTWQFFPFFRFWFLPVCMLLLPFVLVSCLAFFI
measurementTarget: Saccharomyces cerevisiae
reportedResult: 58400

sequenceEntry: MEQTNKEDSGSDTQACPICDAPAVNRCSRCASVYYCSQEHQKEVRYESPSNAL
measurementTarget: Saccharomyces cerevisiae
reportedResult: 49900

sequenceEntry: MVWIRSKSPIKWLYIWLYYVRRPRINVASYTTKWVTIESELVFLAENFLDDKC
measurementTarget: Saccharomyces cerevisiae
reportedResult: 33300

sequenceEntry: GTDDAEAREKTGAADPSADPASRKRRADDGEGDARKRIRTEGGSASAAAASSS
measurementTarget: Saccharomyces cerevisiae
reportedResult: 14100

sequenceEntry: SASSRESSASASHSASKSESSAAASRTSSAPATQSTGAAVANRAGVVGAVAGG
measurementTarget: Saccharomyces cerevisiae
reportedResult: 57700

sequenceEntry: RNMRALRKTWQSSASEDGGGGGEGDEHPHLEDLEYTSREWGAFAQGLKLLAVS
measurementTarget: Saccharomyces cerevisiae
reportedResult: 70800

sequenceEntry: HQVYTDWLYLWCLTYFARAHDQVLIILKKSLKHIPIVGWGMQFFRFLFLARSW
measurementTarget: Saccharomyces cerevisiae
reportedResult: 31700

sequenceEntry: IGVRFDTSIKFINGHLERFLAYLGDPLLKQLCSGEILRRLLLLIIDPPILWND
measurementTarget: Saccharomyces cerevisiae
reportedResult: 79200

sequenceEntry: LIHLMNIAQVVILFVHRFIFGVIPLFEIKTCSFWPLLVSLWHLNYIIIYSIMF
measurementTarget: Saccharomyces cerevisiae
reportedResult: 51600

sequenceEntry: HTQENEKVMWNIGSWNAPSLTNSWDSPPGNRTGAVTIGDESINGSEMPDFSLD
measurementTarget: Saccharomyces cerevisiae
reportedResult: 36100

sequenceEntry: MGTLLFVFMYYGWAFFLDYFIWCFVVSLCFWYKVCLAVLLLAFDVYCHLWCMI
measurementTarget: Saccharomyces cerevisiae
reportedResult: 60200

sequenceEntry: TLTDKCFGAFEDENAIHFHNFHVVSPKYMVILVNCLYMWDLMKTVGLRKPWSG
measurementTarget: Saccharomyces cerevisiae
reportedResult: 68200

sequenceEntry: AEEREAKKRAREEEEEEEAERAERAERAARLRRERAEEARRQAEQKHAEEARQ
measurementTarget: Saccharomyces cerevisiae
reportedResult: 12100

sequenceEntry: EEEYEEEEEEEYEEEEDEEEDEDEEEGGEGEEEDEVKAQRGRRAATAPARARR
measurementTarget: Saccharomyces cerevisiae
reportedResult: 28000

sequenceEntry: THSKKQHCDVCKHPYSFTKVYASDMPKQLPLLLVLRKLVQQFFSVLLFSIRAI
measurementTarget: Saccharomyces cerevisiae
reportedResult: 45400

sequenceEntry: SAASRVAEEKSGDDEAAAAPGTGATPEGVKRKTTRGGKKNRSKKEGGAAAAAA
measurementTarget: Saccharomyces cerevisiae
reportedResult: < 6570

sequenceEntry: EAAARRERKQAAEKGENRERKRRTQGLQNNTARSQKDGDGKGEGGKDNKKDGK
measurementTarget: Saccharomyces cerevisiae
reportedResult: 29200

These data points were gathered from the supplement of paper PMC12636428.
